# tested_target: Spike glycoprotein/Angiotensin-converting enzyme 2 (Severe acute respiratory syndrome coronavirus 2, UniProt P0DTC2+Q9BYF1)
# Sequence (Q9BYF1 whole entry, looked up, other chains not shown): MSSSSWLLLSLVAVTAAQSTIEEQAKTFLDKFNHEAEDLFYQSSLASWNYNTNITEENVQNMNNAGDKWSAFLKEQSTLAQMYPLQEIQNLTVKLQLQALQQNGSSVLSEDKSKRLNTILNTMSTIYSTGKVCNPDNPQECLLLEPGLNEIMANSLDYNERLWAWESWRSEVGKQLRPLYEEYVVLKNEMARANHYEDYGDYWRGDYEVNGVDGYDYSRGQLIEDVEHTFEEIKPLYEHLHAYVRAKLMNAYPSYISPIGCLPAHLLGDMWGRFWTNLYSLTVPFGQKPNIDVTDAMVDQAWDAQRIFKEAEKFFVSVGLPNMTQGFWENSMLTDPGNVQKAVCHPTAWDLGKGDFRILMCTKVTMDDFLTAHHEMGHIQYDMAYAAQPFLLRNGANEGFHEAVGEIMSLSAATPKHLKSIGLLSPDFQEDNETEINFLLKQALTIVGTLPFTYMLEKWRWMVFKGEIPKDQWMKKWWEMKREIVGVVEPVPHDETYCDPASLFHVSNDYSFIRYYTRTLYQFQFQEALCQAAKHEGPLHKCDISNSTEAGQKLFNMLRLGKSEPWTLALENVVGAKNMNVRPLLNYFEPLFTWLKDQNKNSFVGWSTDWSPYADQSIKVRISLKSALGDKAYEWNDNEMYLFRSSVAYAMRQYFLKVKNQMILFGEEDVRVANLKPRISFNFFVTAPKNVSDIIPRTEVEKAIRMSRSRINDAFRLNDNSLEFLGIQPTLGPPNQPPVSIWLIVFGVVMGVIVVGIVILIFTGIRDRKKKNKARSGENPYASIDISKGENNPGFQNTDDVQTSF
# procedure_text: Inhibition of SARS CoV-2 S1 RBD/biotinylated ACE2 (unknown origin) protein-protein interaction preincubated with S1 protein for 60 mins followed by addition of ACE2 protein measured after 60 mins by ELISA
pIC50: −log10 of the molar value.
Everything with pIC50 lower than 5 is FALSE; everything else, including exactly 5, is TRUE.

structure_notation: O=C1OC2(c3ccccc31)c1cc(I)c(O)c(I)c1Oc1c2cc(I)c(O)c1I
category: TRUE

structure_notation: C=CCOc1cc(O)c2c(=O)c(OCC=C)c(-c3ccc(OCC=C)c(OCC=C)c3)oc2c1
category: TRUE

structure_notation: CCC(=O)Oc1cc(O)c2c(=O)c(OC(=O)CC)c(-c3ccc(OC(=O)CC)c(O)c3)oc2c1
category: TRUE

structure_notation: CCCOc1cc(O)c2c(=O)c(OCCC)c(-c3ccc(OCCC)c(OCCC)c3)oc2c1
category: FALSE

structure_notation: CCOc1cc(O)c2c(=O)c(OCC)c(-c3ccc(OCC)c(OCC)c3)oc2c1
category: TRUE
